Target: CYP2C9 (Homo sapiens, UniProt P11712)
Sequence (P11712 whole entry): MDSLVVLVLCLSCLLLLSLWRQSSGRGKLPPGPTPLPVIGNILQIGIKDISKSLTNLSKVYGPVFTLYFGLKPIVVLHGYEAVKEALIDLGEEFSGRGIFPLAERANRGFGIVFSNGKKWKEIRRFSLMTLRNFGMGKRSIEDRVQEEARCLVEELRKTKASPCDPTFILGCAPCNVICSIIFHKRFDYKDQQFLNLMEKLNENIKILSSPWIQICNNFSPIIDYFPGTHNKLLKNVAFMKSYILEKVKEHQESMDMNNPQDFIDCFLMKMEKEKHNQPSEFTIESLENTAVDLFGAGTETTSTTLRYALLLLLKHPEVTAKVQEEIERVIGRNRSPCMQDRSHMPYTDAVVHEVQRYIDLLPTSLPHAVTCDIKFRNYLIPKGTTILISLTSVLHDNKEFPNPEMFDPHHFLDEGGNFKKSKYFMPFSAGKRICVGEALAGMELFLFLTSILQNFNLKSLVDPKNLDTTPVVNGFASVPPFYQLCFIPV
Assay: P450 cocktail inhibition assay, CYP2C9
Format: in vitro ADME
Details: at 10 μM
REPORTED_PROPERTY: CYP-450 % inh. 2C9 (%)
Number in %, nothing else.

Consider the worked cases shown below.
>>> quantitative_readout("O=C(Nc1cnn(-c2csc(C(=O)NC3CCOCC3)c2)c1)Nc1ccccc1Cl")
7
>>> quantitative_readout("Cc1sc(C(=O)NC2COC2)cc1-n1cc(NC(=O)Nc2c(F)cccc2Cl)cn1")
33
>>> quantitative_readout("O=C(Nc1cnn(-c2csc(C(=O)N[C@@H]3CCOC3)c2)c1)Nc1ccccc1Cl")
38

Now look at this entry.
Please report the recorded CYP-450 % inh. 2C9 for CN1CCC(NC(=O)c2cc(-n3cc(NC(=O)Nc4ccccc4Cl)cn3)cs2)CC1 .
−19
